- TEST_SUMMARY: Pharmacokinetics after multiple oral administrations to psoriatic patients for 28 days
- Format: in vivo, human
- TEST_CONDITIONS: human, blood; 5 mg q.d. oral, Day 13, Mean ± SD
ATTRIBUTE_MEASURED: AUC tau at 312 h (ng·h/mL)
// return numeric value only (unit: ng·h/mL, not printed)

// query // returns reported AUC tau at 312 h for input CC[C@@H]1/C=C(\C)C[C@H](C)C[C@H](OC)[C@H]2O[C@@](O)(C(=O)C(=O)N3CCCC[C@H]3C(=O)O[C@H](/C(C)=C/[C@@H]3CC[C@H](Cl)[C@H](OC)C3)[C@H](C)[C@@H](O)CC1=O)[C@H](C)C[C@@H]2OC [pimecrolimus, 33-epichloro-33-desoxy-ascomycin]
// result 44.5

Provenance of the data: patent EP1649856A2
